# System: SNB-78 CNS
# measurement_description: NCI tumour cell line growth inhibition, 48 h
Would you mind telling me the reported TGI of each entry?

[
  {
    "compound": "COC(=O)CCC(NC(=S)N/N=C(\\C)c1cccs1)C(=O)OC (stereo unspecified)",
    "TGI": "> 100 µM"
  },
  {
    "compound": "C=C1C(=O)OC2C[C@@]3(C)CCCC(=C)C3CC12 (stereo partly specified)",
    "TGI": "13.5 µM"
  }
]

Hey, can you go through the list below and give me TGI for every item?
1. CCNC1CC(n2cc(C)c(=O)[nH]c2=O)OC1CO (stereo unspecified)
2. Nc1ccccc1SC(/C=C/NNC1=NC(c2ccccc2)C(c2ccccc2)=NN1)c1ccccc1 (stereo unspecified)
3. CCOC(=O)C(Cc1cc(OC)c(CC(C(=O)OCC)C(=O)OCC)cc1OC)C(=O)OCC
4. O=C1C(=O)N(c2cc(Cl)ccc2Cl)C(=O)C(=O)C1c1nc2ccccc2s1

Response:
1: > 100 µM; 2: 44.3 µM; 3: > 100 µM; 4: > 100 µM
